molecular target: cpFLIPPi-5.3m; settings: in vivo, root epidermal cells of transition zone; injection buffer 50 mM MOPS-KOH pH 7.3, 0.5 mM MgCl2, total K+ 75 mM
pKd: −log10 of the molar value.

MOLECULE	EXPERIMENTAL_TARGET	pKd
O=P(O)(O)O [Pi, inorganic phosphate]	cpFLIPPi-5.3m	2.13
